target: EV71 3C protease (Human enterovirus 71, UniProt Q66478); assay: EV71 3C protease inhibition assay (chromogenic substrate succinyl-EALFQ-pNA); format: biochemical; conditions: EV71 3C protease 6 μM, 2 h preincubation at 25 °C, pH 7.0; read-out: Inhibitory Potency, IC50
Sequence (Q66478 1549-1731): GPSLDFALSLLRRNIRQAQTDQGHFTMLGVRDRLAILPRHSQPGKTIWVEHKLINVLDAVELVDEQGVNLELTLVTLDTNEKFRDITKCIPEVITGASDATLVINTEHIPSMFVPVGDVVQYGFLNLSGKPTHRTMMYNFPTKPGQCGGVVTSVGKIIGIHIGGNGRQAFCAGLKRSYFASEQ
pIC50: −log10 of the molar value.
outcome-measure: pIC50

Below, 5 molecules whose answers are already recorded.
{"columns": ["substance-smiles", "pIC50"],
 "data": [
  ["CCOC(=O)/C=C/[C@H](C[C@@H]1CCNC1=O)NC(=O)[C@@H](CC(=O)[C@@H](NC(=O)c1cccnn1)C(C)C)Cc1ccc(F)cc1", 5.03],
  ["CCOC(=O)/C=C/[C@H](C[C@@H]1CCNC1=O)NC(=O)[C@@H](CC(=O)[C@@H](NC(=O)c1nnccc1C)C(C)C)Cc1ccc(F)cc1", 5.28],
  ["CCOC(=O)/C=C/[C@H](C[C@@H]1CCNC1=O)NC(=O)[C@@H](CC(=O)[C@@H](NC(=O)c1ccccn1)C(C)C)Cc1ccc(F)cc1", 4.65],
  ["CCOC(=O)/C=C/[C@H](C[C@@H]1CCNC1=O)NC(=O)[C@@H](CC(=O)[C@@H](NC(=O)C(C)C)C(C)C)Cc1ccc(F)cc1", 4.93],
  ["CCOC(=O)/C=C/[C@H](C[C@@H]1CCNC1=O)NC(=O)[C@@H](CC(=O)[C@@H](NC(=O)C(F)(F)F)C(C)C)Cc1ccc(F)cc1", 5.11]
]}

(A) CCOC(=O)/C=C/[C@H](C[C@@H]1CCNC1=O)NC(=O)[C@@H](CC(=O)[C@@H](NC(=O)c1ccc(C)nn1)C(C)C)Cc1ccc(F)cc1
(B) CCOC(=O)/C=C/[C@H](C[C@@H]1CCNC1=O)NC(=O)[C@H](Cc1ccc(F)cc1)NC(=O)[C@@H](NC(=O)c1cc(C)on1)C(C)C
Given the listed records, identify the one among A and B with higher pIC50. Could you answer with the label of the item you picked?
A
(A: 5.43, B: 5.21)
